Tested on: SEM cells
Assay: cell viability relative to DMSO control; higher = less cytotoxic
Conditions: HPLM + 10% dialyzed FBS; 48 h; 0.000781 µM
Below is a list of entries, each paired with its recorded cell viability value.
readoutLabel: cell viability (%)

> print(dat)
                                    compound  numericresult
 1  CCN1\C=C(\C(O)=O)C(=O)C2=C1N=C(N3CCNCC3)C(=C2)F           58.6
 2               O=C(CCCCCCC(=O)Nc1cccnc1)NO           78.3
 3  CC(C)=CCC/C(C)=C/CC/C(C)=C/CSc1ccccc1C(=O)O           97.5
 4  Clc1cccc(-n2nnnc2NCc2ccccc2Oc2ccccn2)c1Cl            102
 5  CCN1C[C@H](C)[N]2C(=C(O)C3=C2\C(=N/N(CC4=CC=C(F)C(=C4)Cl)C3=O)C(=O)NC)C1=O            104
 6  COc1cc2ncn(-c3cc(OCc4ccccc4[S+](C)(=O)[O-])c(C#N)s3)c2cc1OC            102
 7  OC1=CC2=C(C=C1)C(=O)\C(=C(O2)\C3=CC(=C(O)C=C3)O)O            103
 8  CCOc1cc2ncc(C#N)c(Nc3ccc(F)c(Cl)c3)c2cc1NC(=O)/C=C/CN(C)C           88.3
 9  C=C1C(=O)[C@@]23C(CC[C@@H]1[C@H]2O)[C@@]12CO[C@]3(O)[C@@H](O)[C@@H]1C(C)(C)CC[C@@H]2O (stereo partly specified)            102
10                    O=[N+]([O-])c1ncc[nH]1             86
11             CCN(CC)CCOc1ccc(Cc2ccccc2)cc1            102
